Kindly state solubility thermodynamic at 3 min for each of the entries shown.
- experiment: pH-solubility of polypeptide variants
- Format: physicochemical
- measurement-conditions: pH 7.5; a: precipitate, supernatant assayed; read-out: pH-solubility, Concentration
Square brackets hold non-standard residues; d marks the D form. Peptide text beside a SMILES is read from it. Orn = NCCC[C@H](N)C(=O)O
One number for each entry, in mg/mL.

compound	unit-annotation	solubility thermodynamic at 3 min
CC(C)[C@H](NC(=O)[C@@H](NC(=O)[C@H](Cc1ccccc1)NC(=O)[C@@H](NC(=O)[C@@H](NC(=O)[C@H](Cc1ccccc1)NC(=O)[C@H](CO)NC(=O)[C@H](C)NC(=O)[C@@H](N)CCCCN)[C@@H](C)O)[C@@H](C)O)[C@@H](C)O)C(=O)N[C@H](C(=O)N[C@@H](CCCCN)C(=O)NCC(=O)N[C@@H](CO)C(=O)O)[C@@H](C)O [SEQ ID NO.4] (H-KASFTTFTVTKGS-OH)	mg/mL	16.7
CC(C)[C@H](NC(=O)[C@@H](NC(=O)[C@H](Cc1ccccc1)NC(=O)[C@@H](NC(=O)[C@@H](NC(=O)[C@H](Cc1ccccc1)NC(=O)[C@H](CO)NC(=O)[C@H](C)NC(=O)[C@@H](N)CCCN)[C@@H](C)O)[C@@H](C)O)[C@@H](C)O)C(=O)N[C@H](C(=O)N[C@@H](CCCN)C(=O)N[C@@H](CO)C(N)=O)[C@@H](C)O [SEQ ID NO.10, OASFTTFTVTOS-NH2] (H-[Orn]ASFTTFTVT[Orn]S-NH2)	mg/mL	19.1
CC(=O)N[C@H](C)C(=O)N[C@H](C)C(=O)N[C@@H](CCC(=O)O)C(=O)NCC(=O)N[C@@H](CCCCN)C(=O)N[C@@H](C)C(=O)N[C@@H](CO)C(=O)N[C@@H](Cc1ccccc1)C(=O)N[C@H](C(=O)N[C@H](C(=O)N[C@@H](Cc1ccccc1)C(=O)N[C@H](C(=O)N[C@H](C(=O)N[C@H](C(=O)N[C@@H](CCCCN)C(=O)NCC(=O)N[C@@H](CO)C(=O)N[C@H](C)C(=O)N[C@H](C)C(N)=O)[C@@H](C)O)C(C)C)[C@@H](C)O)[C@@H](C)O)[C@@H](C)O [SEQ ID NO.8] (Ac-[dA][dA]EGKASFTTFTVTKGS[dA][dA]-NH2)	mg/mL	28.3

Read the next record carefully.
## Task Using known records, supply solubility thermodynamic at 3 min for CC(C)[C@H](N)C(=O)N[C@H](C(=O)N[C@@H](CCCCN)C(=O)N[C@@H](Cc1ccc(O)cc1)C(=O)N[C@@H](Cc1c[nH]c2ccccc12)C(=O)N[C@@H](Cc1ccccc1)C(=O)N[C@@H](Cc1ccc(O)cc1)C(=O)N[C@@H](CCCNC(=N)N)C(N)=O)[C@@H](C)O [SEQ ID NO.22] (H-VTKYWFYR-NH2)
## Result 61.5
